- System: DHP-I
- assay_overview: DHP-I susceptibility (method by Kropp et al.)
- Type: in vitro ADME
- protocol_conditions: ratio to imipenem (=1.0), smaller = higher stability
observable: DHP-I susceptibility

{"compound": "C[C@@H](O)[C@H]1C(=O)N2C(C(=O)O)=C(SCCN=CN)C[C@H]12 [Imipenem, monohydrate, reference compound]", "system": "DHP-I", "number": 1.0}

a. C[C@@H](O)[C@H]1C(=O)N2C(C(=O)O)=C(S[C@@H]3CN[C@H](CC4CN[C@H](C(=O)N(C)C)C4)C3)[C@H](C)[C@H]12 (stereo partly shown) [Example 34]
b. C[C@@H](O)[C@H]1C(=O)N2C(C(=O)O)=C(S[C@@H]3CN[C@H](C4CCN(C)CC4)C3)[C@H](C)[C@H]12 [Example 49]
Lookup: Pick one, a or b : lowest reported DHP-I susceptibility. Reply with the label of the item you choose.
Found: a
